IC50 reference
# System: MelJuSo cells
# procedure_summary: Cell viability (CellTiter-Glo ATP content) in MelJuSo cells
# Assay type: cell-based
# details: Homo sapiens, MEL-JUSO, 72 hours treatment, cell survival by CellTiter-Glo, 2% fetal bovine serum

compound	IC50
CCCCC1C(c2ccc(F)cc2)=NN(c2ccccc2)C1(C)C(=O)N(CCO)Cc1ccccc1 (stereo not drawn)	> 2 µM

Q: Given COC(=O)[C@H](C)NC(=O)C1(C)C(c2ccoc2)C(c2ccc(F)cc2F)=NN1c1ccc(F)cc1F (stereo partly drawn) , state its recorded IC50.
A: > 2 µM

Q: Given CCCCC1C(c2ccc(F)cc2)=NN(c2ccccc2)C1(C)C(=O)NCc1ccccc1OC (stereo not drawn) , state its recorded IC50.
A: > 2 µM

Q: Given CCCCC1C(c2ccc(F)cc2)=NN(c2ccccc2)C1(C)C(=O)N(C)Cc1ccc(OC)c(OC)c1 (stereo not drawn) , state its recorded IC50.
A: > 2 µM

Q: Given CC(C)(CO)CCCNC(=O)C1(C)C(c2ccoc2)C(c2ccc(F)cc2F)=NN1c1ccc(F)cc1F (stereo not drawn) , state its recorded IC50.
A: 0.25 to 0.5 µM

Q: Given CCCCC1C(c2ccc(F)cc2)=NN(c2ccccc2)C1(C)C(=O)NC(C)c1ccc(S(C)(=O)=O)cc1 (stereo not drawn) , state its recorded IC50.
A: > 2 µM

---

# System: MelJuSo cells
# procedure_summary: Cell viability (CellTiter-Glo ATP content) in MelJuSo cells
# Assay type: cell-based
# details: Homo sapiens, MEL-JUSO, 72 hours treatment, cell survival by CellTiter-Glo, 2% fetal bovine serum
IC50 reference

Consider the worked cases shown below.
compound	IC50
CCCCC1C(c2ccc(F)cc2)=NN(c2ccccc2)C1(C)C(=O)NCCS(C)(=O)=O (stereo not drawn) [Compound 79]	> 2 µM
CCCCC1C(c2ccc(F)cc2)=NN(c2ccc(F)cc2F)C1(C)C(=O)NCC(=O)OC (stereo not drawn) [Compound 81]	< 0.25 µM
CC(C)(CO)CCCNC(=O)C1(C)C(c2cccs2)C(c2ccc(F)cc2)=NN1c1ccccc1 (stereo not drawn) [Compound 20]	0.25 to 0.5 µM
COCCNC(=O)C1(C)C(c2ccc(Cl)o2)C(c2ccc(F)cc2F)=NN1c1ccc(F)cc1F (stereo not drawn) [Compound 120]	< 0.25 µM
CC1(C(=O)NCC(=O)OCCO)C(c2cccs2)C(c2ccc(F)cc2)=NN1c1ccc(F)cc1F (stereo not drawn) [Compound 128]	0.25 to 0.5 µM

# ---- query compound ----
Q: Given CC(C)(CO)CCCNC(=O)C1(C)C(c2ccc(Cl)o2)C(c2ccc(F)cc2F)=NN1c1ccc(F)cc1F (stereo not drawn) [Compound 133] , state its recorded IC50.
A: < 0.25 µM
